# Tested on: KM12 colon
# Run description: NCI tumour cell line growth inhibition, 48 h
Where a SMILES comes first, the peptide text is derived from it. The star is where a group is joined. Boc = CC(C)(C)OC(=O)*
Measurement label: TGI

Fill in the blank: the reported TGI of `COc1c(Br)cc(Br)c(OC)c1-c1[nH]c(Br)c(Br)c1Br` is ____.
21.1 µM

Fill in the blank: the reported TGI of `C=CC[C@]12C[C@@H](C(=O)OC)N(C(=O)OC)[C@H]1N(S(=O)(=O)c1ccccc1)c1ccccc12` is ____.
> 100 µM

Fill in the blank: the reported TGI of `CC/C(=N\NS(=O)(=O)c1ccccc1)c1ccccc1` is ____.
> 100 µM

Fill in the blank: the reported TGI of CC(C)(C)OC(=O)NCC(=O)NCC(=O)NCC(=O)NCC(=O)O (Boc-GGGG-OH) is ____.
> 100 µM

Fill in the blank: the reported TGI of `CN(C)C(=S)S` is ____.
> 100 µM

Fill in the blank: the reported TGI of `CC1(C)N=C(N)N=C(N)N1c1ccc(OCC(=O)Nc2ccccc2)c(Cl)c1` is ____.
> 100 µM

Fill in the blank: the reported TGI of `O=C(NC12CC3CC(CC(C3)C1)C2)C(=O)c1c[nH]c2ccc(Cl)cc12` is ____.
> 100 µM

Fill in the blank: the reported TGI of `OB1OCc2cc(/C=C/c3cccc(C(F)(F)F)c3)ccc21` is ____.
> 100 µM

Fill in the blank: the reported TGI of `CSc1c(C)c(C)nn1-c1ccccc1` is ____.
> 100 µM

Fill in the blank: the reported TGI of COc1ccc(CC(C)C(C)Cc2ccc(OC)c(OC)c2)cc1OC (stereo unspecified) is ____.
> 1400 µM

Fill in the blank: the reported TGI of OC(c1ccc(Br)cc1)(c1cccs1)C1CC1 (stereo unspecified) is ____.
35.3 µM

====

Kindly state TGI for each of the entries shown.
# System: HT29 colon
# Run description: NCI tumour cell line growth inhibition, 48 h

Fill in the blank: the reported TGI of `Brc1cccc(Nc2nc(-c3cccs3)nc3ccc(Br)cc23)c1` is ____.
53 µM

Fill in the blank: the reported TGI of `CN(C)Cc1cc(C(=O)/C=C/c2ccc(O)cc2)cc(CN(C)C)c1O` is ____.
> 100 µM

Fill in the blank: the reported TGI of C1=CC2=CC=CC3c4nc5ccc6ccccc6c5nc4C(=C1)C23 (stereo unspecified) is ____.
> 100 µM

Fill in the blank: the reported TGI of Cc1cn(C2OC(C)(CO)C(O)C2O)c(=O)[nH]c1=O (stereo unspecified) is ____.
> 100 µM

Fill in the blank: the reported TGI of `C=CCOC(=O)CC[N+]1=CCC(c2ccccc2)(c2ccccc2)O1` is ____.
> 100 µM

Fill in the blank: the reported TGI of `O=c1ccc2cc3ccc4cccc5ccc(c2o1)c3c45` is ____.
> 100 µM

====

# System: RXF 393 renal
# Run description: NCI tumour cell line growth inhibition, 48 h
Kindly state TGI for each of the entries shown.

Fill in the blank: the reported TGI of `CSc1c(C)c(C)nn1-c1ccccc1` is ____.
> 100 µM

Fill in the blank: the reported TGI of `C=CCOC(=O)CC[N+]1=CCC(c2ccccc2)(c2ccccc2)O1` is ____.
> 100 µM

Fill in the blank: the reported TGI of CC1(Cc2ccccc2)NC(=S)NC1=O (stereo unspecified) is ____.
> 100 µM

Fill in the blank: the reported TGI of `COC(=O)c1c2c(cc3c1CC1(C3)Cc3cc4c(c(C(=O)OC)c3C1)CCCC4)CCCC2` is ____.
> 100 µM

Fill in the blank: the reported TGI of `Cc1cc2c(Br)cc(Br)c(O)c2nc1C(=O)c1ccccc1` is ____.
> 83.6 µM

Fill in the blank: the reported TGI of `CS(=O)(=O)OCCn1c(=O)n(CCOS(C)(=O)=O)c(=O)n(CCOS(C)(=O)=O)c1=O` is ____.
> 100 µM

Fill in the blank: the reported TGI of COc1ccc(C2(CC(C)O)SCCCS2)cc1 (stereo unspecified) is ____.
> 100 µM

Fill in the blank: the reported TGI of `O=C/C(=C(/Cl)c1ccc(O)cc1)c1ccccc1` is ____.
57.2 µM

Fill in the blank: the reported TGI of `CC(C)COP(=O)(OCC(C)C)C(NS(=O)(=O)c1ccccc1)(C(F)(F)F)C(F)(F)F` is ____.
21.1 µM

Fill in the blank: the reported TGI of CCCCCCCCCCCCCCCCCCNC(=O)[C@H]1CSC(c2cccs2)N1 (stereo partly specified) is ____.
1.72 µM

Fill in the blank: the reported TGI of COc1ccc(C(OCC2OC(n3cc(C)c(=O)[nH]c3=O)CC2n2cc(Cn3cc(F)c(=O)[nH]c3=O)nn2)(c2ccccc2)c2ccccc2)cc1 (stereo unspecified) is ____.
49.6 µM
